Value source: the nanobody polyreactivity screen of Harvey et al. (2022)

# assay_details: yeast display, Sf9 membrane polyspecificity reagent, FACS + sequencing; frameworks hold sequencing errors
parameter_measured: polyreactivity (PSR sort gate)

Would you please look over these solved cases?
| residue_codes | parameter_measured | result |
| --- | --- | --- |
| QVQIVESGGGLVQAGGSLRLSCAASGRIFVPYVMGWYRQAPGKERELVASISDSDTSTYYADSVKGRFTISRDNAKNTVYLQMNSLKPEDSAVYYCAAGVLRRATELYYWGQGTQVTVSS | polyreactivity (PSR sort gate) | low polyreactivity |
| QVQLEESGGGLVQAGGSLSLSCAASGSIFYGYAMGWYRQAPGKERELVAAITSGGRTYYADSVKGRFTISRDNAKNTVYLQMNSLKPEDTAVYYCNAVYRKTSYGYWGQGTQVTVSS | polyreactivity (PSR sort gate) | high polyreactivity |
| QVQLVESGGGLVQAGGSLRLSCAASGRTFSYYTLGWYRQAPGKERELVARISNRGTNTYYADSVKGRFTISRDNAKNTVYLQMNSLKPEDTAVYYCAAYTPPVYWLTRAIRGYYWGQGTQVTVSS | polyreactivity (PSR sort gate) | low polyreactivity |
| QVQLVESGGGLVQAGGSLRLSCAASGSISVYYAMGRYRQAPGKERELVASIRYTGGRTYYADSVKGRFTISRDNAKNTVYLQMNSLKPEDTAVYYCAADVKRDRVWGGDYWGHGTQVTVSS | polyreactivity (PSR sort gate) | low polyreactivity |
| QVQLVESGGGLVQAGGSLRLSCAASGRIFERYAMGWYRQAPGKERELVAGISISGGGTYYADSVKGRFTISRDNAKNTFYLQMNSLNPEDTAVYYCSATFPREEYGYWGQGTQVTVSS | polyreactivity (PSR sort gate) | low polyreactivity |

Input line: Kindly indicate its recorded polyreactivity (PSR sort gate). Item: QVQLVESGGGLVQAGGSLRLSCAASGHIFSYYAMGWYRQAPGKERELVAAISSSGSSTYYADSVKGRFTISRDNAKNTVYLQMNSLKPEDTAVYYCNAPYIAWYDGDYWGQGTQVTVSS
Output line: low polyreactivity

Input line: Given the sequence QVQLVESGGGLVQAGGSLRLSCAASGRIFSHYAMGWYRQAPGKEREFVAAITYSGGSTYYADSVKGRFTISRDNAKNTVYLQMNSLKPEDTAVYYCNAKGYAKYYYWGQGTQVTVSS , write its reported polyreactivity (PSR sort gate).
Output line: high polyreactivity

Input line: Consider the sequence QVQLVESGGGLVQAGGSLRLRCAASGRTFHAYVMGWYIQAPVKERELVADISSGGDTYADSVKGRFTISRDNAKNTVYLQMNSLKPEDTAVYYCAVDLIQDESGYWGQGTQVTVSS . State its measured polyreactivity (PSR sort gate).
Output line: low polyreactivity

Input line: Please indicate polyreactivity (PSR sort gate) recorded for QVQLVESGGGLVQAGGSLRLSCAASGSTLRRHAMGWYRQAPGKERELVAAISSGGSTYYEDSVKGRFTISRDNAKNTVYLQMNSLKPEDTAVYYCAAPYSYRTWYPYGYWVQGTQVTVSS
Output line: high polyreactivity

Input line: Provide one value: measured polyreactivity (PSR sort gate) of QVQLVESGGGLVQAGGSLRLSCAASGFTFGHNDMGWYRQAPGKERELVASITQSGGSTYYADSVKGRFTISRDNAKNTVYLQMNSLKPEDTAVYYCAKDLYQSAFITKYDYWGQGTQVTVSS
Output line: low polyreactivity
